B1: library; numbered along this chain (parent)
chain: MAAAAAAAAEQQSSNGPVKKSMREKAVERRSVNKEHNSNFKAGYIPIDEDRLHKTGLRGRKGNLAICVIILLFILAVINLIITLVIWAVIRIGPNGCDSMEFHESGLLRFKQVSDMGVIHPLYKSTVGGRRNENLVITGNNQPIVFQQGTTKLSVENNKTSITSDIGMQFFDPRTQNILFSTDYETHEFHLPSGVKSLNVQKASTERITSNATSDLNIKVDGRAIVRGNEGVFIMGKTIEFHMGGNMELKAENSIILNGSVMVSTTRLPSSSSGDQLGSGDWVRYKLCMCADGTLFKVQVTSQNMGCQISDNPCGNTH

- Variants of: B1
- experiment_description: SGCB cell-surface expression functional score (HA stain, bin4 vs bin1, normalised to synonymous) (log10 ratio); higher = more cell-surface SGCB (functional)
measure_name: SGCB cell-surface expression functional score (log10)
Answer as a number with no unit attached.

Worked examples, 10 variants total:
1. N157E | -0.18
2. Q147H | -0.39
3. H53A | 0.38
4. K54H | -0.42
5. C97W | -1.46
6. K20R | 0.2
7. K297N | 0.46
8. M305C | -0.18
9. F40T | 0.19
10. V220N | 0.09

[in] Return SGCB cell-surface expression functional score (log10) (reported value) for this variant: "R131N"
[out] 0.24

[in] Return SGCB cell-surface expression functional score (log10) (reported value) for this variant: "R58P"
[out] 0.27

[in] Return SGCB cell-surface expression functional score (log10) (reported value) for this variant: "I78E"
[out] -0.45

[in] Return SGCB cell-surface expression functional score (log10) (reported value) for this variant: "N177C"
[out] 0.09

[in] Return SGCB cell-surface expression functional score (log10) (reported value) for this variant: "K20Y"
[out] -0.59

[in] Return SGCB cell-surface expression functional score (log10) (reported value) for this variant: "K124G"
[out] 0.08

[in] Return SGCB cell-surface expression functional score (log10) (reported value) for this variant: "G274E"
[out] -0.62

[in] Return SGCB cell-surface expression functional score (log10) (reported value) for this variant: "G43H"
[out] 0.33

[in] Return SGCB cell-surface expression functional score (log10) (reported value) for this variant: "G315C"
[out] -0.05

[in] Return SGCB cell-surface expression functional score (log10) (reported value) for this variant: "C288Q"
[out] -0.16

[in] Return SGCB cell-surface expression functional score (log10) (reported value) for this variant: "I225T"
[out] 0.51

[in] Return SGCB cell-surface expression functional score (log10) (reported value) for this variant: "G228I"
[out] -1.44
